Protocol notes: Novel Modifiers of Survival Motor Neuron (SMN) Protein: Gene Identification via Genome-wide siRNA Screen;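 note: luminescence tracks full-length SMN protein made from the SMN2 reporter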
Experimental context: HEK293T SMN2-luciferase reporter, siRNA knockdown, 72 h; actives lie on both sides
Hit rate of the full screen: of about 31,000 sequences, about 1,400 (4.5%) were called active.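 Rule for the calls: active = median seed-adjusted z-score above 1 or below -1; inactive = the rest.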 The sample as a whole holds a higher share of actives than the screen did.
Pick one and only one: active, inactive

Would you please look over these solved cases?
>>> category("UCUUCACCGUGUGCCUAGATT against CRAT")
"active"
>>> category("GGUGUUGUUUCAUCGUUUUTT against CCNL1")
"active"
>>> category("CAGUAUCUAUUCACAAUGATT against TRNT1")
"inactive"
>>> category("GCAGUGUAUAGAACGAGAATT against RNGTT")
"active"
>>> category("GGACAUAAUGUAUUAUACUTT against DDHD1")
"inactive"
>>> category("CAGUCUUGAUUCCACUGAATT against PCDHA3")
"inactive"
>>> category("UUUUUGAUGUGGACUCAAATT against USP18")
"inactive"
>>> category("GAACAUCGCAUAAUCCUGATT against ORC1L")
"inactive"
>>> category("GAAUGAAAUCAGAGUAUAATT against RNF125")
"inactive"
>>> category("GCACUGCGACUGUACUCUATT against LRRC3B")
"inactive"

# outcome recorded in this test, key = AGGGCACAUUCACCAGUGATT against GCG
active

Note, next up: GGCUGUACAUAGUCCUUUUTT against SNRPB
active

Please give the result for GGAUUCACACGGGAAUUAATT against ZNF649 too.
inactive

Please do the same for GGCAUACAGUUCCGAGAAATT against AGL as well.
inactive

Request: GAAGAGCUCUUAGAGUGUATT against BCAT1
inactive

One more sequence: CUCCUAAAGUGCAUCGCAATT against GUF1
inactive

---

Protocol notes: Novel Modifiers of Survival Motor Neuron (SMN) Protein: Gene Identification via Genome-wide siRNA Screen;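 note: luminescence tracks full-length SMN protein made from the SMN2 reporter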
Experimental context: HEK293T SMN2-luciferase reporter, siRNA knockdown, 72 h; actives lie on both sides
Screen size: about 31,000 sequences; about 1,400 (4.5%) were called active.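 How the source made its calls: active means median seed-adjusted z-score above 1 or below -1; inactive means the rest.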 Only a selection was taken, and actives are over-represented in it overall.
Thanks in advance; please answer with one of these: active, inactive

>>> category("GGUAUGGAUUUAACAGUCATT against DHODH")
"inactive"
>>> category("CUAUGUCGUUGAAAACCAUTT against KCNE1")
"inactive"
>>> category("GCCUUAUUGUUACAUGGUUTT against SLC19A2")
"inactive"
>>> category("GGUUGGAACUCGUUCCUCATT against NLGN4X")
"inactive"
>>> category("GAGACAAGCUUCAACCACATT against SERPINA5")
"active"
>>> category("CCCAGACUCUAGAUAGACATT against SULT1C3")
"inactive"
>>> category("GCCUUCUACACUUACAUGATT against EVX1")
"active"
>>> category("GGAACACUCAUGACUGUAATT against ZNF426")
"inactive"
>>> category("GGGCCUACUUUACAUCACATT against TXNDC14")
"active"
>>> category("CCACGAGAUUUCACAAACATT against PRKD3")
"inactive"

GET /call?item= CCUCAUUUGUCUACACCAUTT against RAD51L1 returns the recorded outcome of this test.
inactive

GCAAGGCAGCUGUUCUGAATT against PGLS , same question.
inactive

---

Protocol notes: Novel Modifiers of Survival Motor Neuron (SMN) Protein: Gene Identification via Genome-wide siRNA Screen;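 note: luminescence tracks full-length SMN protein made from the SMN2 reporter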
Experimental context: HEK293T SMN2-luciferase reporter, siRNA knockdown, 72 h; actives lie on both sides
Among all 31,000 sequences or so, about 1,400 (4.5%) were called active. The entries come from a sample that favours actives as a whole.
Could you mark each record Criterion met if its median seed-adjusted z-score falls strictly under 0.3, and Criterion not met if it equals or exceeds it?

Study these solved cases before continuing.
>>> category("GGGACUUCAUGUUCGAGCATT against DNAI2")
"Criterion met"
>>> category("GCCUUGAUGCUGAUCAUCATT against MEP1B")
"Criterion not met"
>>> category("CCAUUGUAGUCUCUCCUCUTT against RECQL5")
"Criterion met"

Say whether its median seed-adjusted z-score is strictly beneath 0.3. Entry: GUGCAUGCAGGAGAAGUCATT against GATA2
Criterion not met

Query GACCAUACCCAGUACCGAUTT against MYH15 next
Criterion met

Consider next the sequence GCGUGUUCGUGCACGUCUATT against MOBKL2A in the same way.
Criterion met

Check GCAGGAUGAUCUCAAGUAUTT against MOBKL2B too.
Criterion met

And for CCAUCUACAUCAGAGUCCATT against BTN1A1 ?
Criterion met

Another sequence: AAUCAGAUUCUCAACCUAATT against KRT10
Criterion not met

Param item: GGAAGGUGAUUGAUCCUAATT against HNRNPD
Criterion not met

Same read-out for AGAAUGCACCAAACAAACATT against DOLPP1 ?
Criterion met

# repeat for GCAGUUCGGCAGUAUCUGUTT against PSMD6
Criterion met

---

Protocol notes: Novel Modifiers of Survival Motor Neuron (SMN) Protein: Gene Identification via Genome-wide siRNA Screen;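 note: luminescence tracks full-length SMN protein made from the SMN2 reporter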
Experimental context: HEK293T SMN2-luciferase reporter, siRNA knockdown, 72 h; actives lie on both sides
Method: Spinal muscular atrophy (SMA) is the most common neuromuscular autosomal recessive disorder and one of the leading genetic causes of infant death. […] Briefly, 1 pmol of each siRNA was spotted to a well of a 384-well plate (Corning, Corning, NY) and 20 microL of serum-free DMEM containing […] of Lipofectamine RNAiMax (Life Technologies, Carlsbad, CA) was then added to each well. […] Raw luminescence reads were normalized to Ambion(R) Silencer(R) Negative Control #2 siRNA, then log10 transformed. […]
The campaign covered roughly 31,000 sequences. About 1,400 (4.5%) were called active. This is one part of a sample in which actives are shown more often than they occur.
Quantity name: median seed-adjusted z-score
Numbers only.

Some solved entries appear below for comparison.
>>> observed_value("CUCUAUGAAUAUUGUAUUATT against BUD31")
0.0554
>>> observed_value("CUACAAGCAUCGAUAGUAATT against EIF4G3")
-0.0562
>>> observed_value("CUUCAAAGGUGACAAGUAUTT against MMP24")
-1.28
>>> observed_value("GGCAGAACCUAUACCAGAATT against MED6")
-2.15
>>> observed_value("GAGAAAGUGUGAACUUACATT against XRCC2")
0
>>> observed_value("GGCCCUAUGUAUAUGCUUUTT against AK3")
-0.0313
>>> observed_value("CACAGGUAAUCAUACCCUATT against NDUFA9")
-0.325
>>> observed_value("CUACCAGGAUGUUGAUAAATT against ZNF761")
0.291

Hi there! I need median seed-adjusted z-score for each item below, if you can.
1. CCCAAGAACUGCUACGUCATT against SMPD2
2. CGCACAGUGCCUAACCCUATT against RAB26
3. CCCACCAAAUUGCACAAUATT against KLF13
4. GGAUGAUAAUGCUAAUCCATT against PPP1R3A

-0.406
0.171
-0.501
-0.241

---

Protocol notes: Novel Modifiers of Survival Motor Neuron (SMN) Protein: Gene Identification via Genome-wide siRNA Screen;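 note: luminescence tracks full-length SMN protein made from the SMN2 reporter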
Experimental context: HEK293T SMN2-luciferase reporter, siRNA knockdown, 72 h; actives lie on both sides
Procedure: Spinal muscular atrophy (SMA) is the most common neuromuscular autosomal recessive disorder and one of the leading genetic causes of infant death. […] Briefly, 1 pmol of each siRNA was spotted to a well of a 384-well plate (Corning, Corning, NY) and 20 microL of serum-free DMEM containing […] of Lipofectamine RNAiMax (Life Technologies, Carlsbad, CA) was then added to each well. […] Raw luminescence reads were normalized to Ambion(R) Silencer(R) Negative Control #2 siRNA, then log10 transformed. […]
The campaign covered roughly 31,000 sequences. About 1,400 (4.5%) were called active.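 How the source made its calls: active means median seed-adjusted z-score above 1 or below -1; inactive means the rest.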 Shown is part of a subset that was picked to be rich in actives.
Result category, one only: T (active), F (inactive)

>>> category("GACUAUAACUUCCCGAAAATT against SYT11")
"F"
>>> category("GGAGAGACAUCGUCAGCUATT against AGXT")
"F"
>>> category("GAGAUUGGGUGGAAGAGAATT against FOXD2")
"F"

Here is another sequence to look at.
Outcome logged for GAAGUUCGGUCGAACCACATT against CST5 in this assay:
F

---

Protocol notes: Novel Modifiers of Survival Motor Neuron (SMN) Protein: Gene Identification via Genome-wide siRNA Screen;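 note: luminescence tracks full-length SMN protein made from the SMN2 reporter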
Experimental context: HEK293T SMN2-luciferase reporter, siRNA knockdown, 72 h; actives lie on both sides
In all, about 31,000 sequences went through this assay and about 1,400 (4.5%) were called active.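 The calls were made as follows: active = median seed-adjusted z-score above 1 or below -1; inactive = the rest.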 The entries come from a sample that favours actives as a whole.
Mark one answer only. Choices: 1.0 for active, 0.0 for inactive

Test call, this sequence: CCUUCUUCUGGAUACCGAUTT against ABCA9
0.0

Record: CCAAGGAGGUGCACUAUAATT against FHL1
0.0

Moving on to the next sequence: GUCUUGACCUUGAACGCAATT against VIM
0.0

// query: GGCCUAUAAUGAAUACCCUTT against GLRA1
0.0

How about this sequence: AAGGCUACUUAACAAAGGATT against S100A10
0.0

Could you do the same for GCAUCUACGAGUUCAUCAUTT against FOXG1 , please?
0.0

Then ACAUCAACGUGGAACGAGATT against EIF4A1 ?
1.0

Note, next up: GCAUGUAUCUGCUUGAUAUTT against ODC1
1.0
